The reported numbers originate from paper doi:10.1101/2025.06.05.658000.

Experimental target: HLA-DR (DRA1*01:01 / DRB1*04:01), soluble knob-into-hole Fc heterodimer (human)
Protocol: ELISA
pKd: −log10 of the molar value. No end group written: not given here. *: point of attachment. Biotin = O=C1N[C@H]2[C@H](CS[C@H]2CCCCC(=O)*)N1; Ahx = NCCCCCC(=O)O

{"columns": ["Binder", "pKd"],
 "data": [
  ["{Biotin-Ahx}-KPVSKMRMATPLLMQALPM [biotin-labeled human Class II-associated Invariant Chain Peptide (Bio-CLIP)]", 8.63]
]}
